The reported measurements were obtained from ChEMBL document CHEMBL4699598.

assay-overview: Cytotoxicity against human A549 cells assessed as reduction in cell viability incubated for 48 hrs by alamarBlue assay
Format: cell-based
reported-metric: CC50 at 48 h
For clarity, give the value followed by its unit.

Sample records with CC50 at 48 h:
Request the reported CC50 at 48 h associated with CC(C)Nc1ccc(NC(=O)c2cc(Cl)ccc2O)c(Cl)c1
11 µM

Could you do the same for O=C(Nc1ccc(NCc2cc(Cl)cc(C(F)(F)F)c2)cc1Cl)c1cc(Cl)ccc1O , please?
30.9 µM

For CC(C)(C)OC(=O)NCCNc1ccc(NC(=O)c2cc(Cl)ccc2O)c(Cl)c1 then?
25 µM

Others:
CC50 at 48 h for O=C(Nc1ccc(NCc2cc(F)cc(Cl)c2)cc1Cl)c1cc(Cl)ccc1O ?
11.1 µM

Likewise for Cc1ccc(O)c(C(=O)Nc2ccc(NC3CCCC3)cc2Cl)c1 ?
30.9 µM

Now consider O=C(Nc1ccc(NCCCO)cc1Cl)c1cc(Cl)ccc1O .
106 µM

Try O=C(Nc1ccc(NCc2cc(Cl)cc(Cl)c2)cc1Cl)c1cc(Cl)ccc1O next.
13.3 µM

Quick one: O=C(Nc1ccc(NCc2cnccc2Cl)cc1Cl)c1cc(Cl)ccc1O
126 µM

Likewise for O=C(Nc1ccc(NC2CCCC2)cc1)c1cc(Cl)ccc1O ?
10 µM

Ok, now CC1(ON(c2ccc(NC(=O)c3cc(Cl)ccc3O)c(Cl)c2)C2(C)CCCC2)CCCC1
18 µM

# iterate: O=C(NCc1ccc(NC2CCCC2)cc1Cl)c1cc(Cl)ccc1O
28.3 µM

// same read-out, input: O=C(Nc1ccc(NCc2ccc(Br)s2)cc1Cl)c1cc(Cl)ccc1O
20.7 µM

And then O=C(Nc1ccc(NCc2cccc(C(F)(F)F)c2)cc1Cl)c1cc(Cl)ccc1O , what is it?
13.3 µM

Please do the same for CN(C)c1ccc(NC(=O)c2cc(Cl)ccc2O)c(Cl)c1 as well.
85.1 µM

What do we get for O=C(Nc1ccc(NCc2cc(C(F)(F)F)cc(C(F)(F)F)c2)cc1Cl)c1cc(Cl)ccc1O ?
92.8 µM

Same lookup for O=C(Nc1ccc(NCc2ccc(Br)cc2)cc1Cl)c1cc(Cl)ccc1O , please.
40.9 µM
